target: hGLP-1R (Homo sapiens)
Sequence (P43220 24-463): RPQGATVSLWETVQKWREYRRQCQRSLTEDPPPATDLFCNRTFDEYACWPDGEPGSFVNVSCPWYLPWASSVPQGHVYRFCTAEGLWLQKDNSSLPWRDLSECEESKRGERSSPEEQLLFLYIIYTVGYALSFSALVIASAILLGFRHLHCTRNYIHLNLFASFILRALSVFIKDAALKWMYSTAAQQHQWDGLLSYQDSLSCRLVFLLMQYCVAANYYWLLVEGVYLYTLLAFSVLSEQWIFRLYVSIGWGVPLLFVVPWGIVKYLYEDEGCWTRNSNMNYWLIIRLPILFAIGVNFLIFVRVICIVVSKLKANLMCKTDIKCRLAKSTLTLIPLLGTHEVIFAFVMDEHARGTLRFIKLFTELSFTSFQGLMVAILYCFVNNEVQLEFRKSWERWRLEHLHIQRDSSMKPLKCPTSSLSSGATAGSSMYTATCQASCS
protocol: Functional cAMP activity in the presence of 1% HSA
Assay type: cell-based
study.conditions: read-out: cAMP Rel EC50, hGLP-1R
Starred links: 1 amine or outer side, 2 acyl side, 3 side chain; linkers in the order of their positions; H or OH if unused. Non-standard residues stand in square brackets, D forms with d. Groups on a side chain read outwards from the residue. *: point of attachment. C18 diacid = O=C(O)CCCCCCCCCCCCCCCCC(=O)*; αMePhe(2-F) = C[C@](N)(Cc1ccccc1F)C(=O)O; γGlu = O=C(O)[C@H](CCC(=O)[*:2])N[*:1]; αMe4Pal = C[C@](N)(Cc1ccncc1)C(=O)O; αMeY = C[C@](N)(Cc1ccc(O)cc1)C(=O)O; 4Pal = N[C@@H](Cc1ccncc1)C(=O)O; αMeL = CC(C)C[C@](C)(N)C(=O)O; αMeS = C[C@](N)(CO)C(=O)O; Orn = NCCC[C@H](N)C(=O)O; AEEA = NCCOCCOCC(=O)O; Aib = CC(C)(N)C(=O)O
Entries annotated with measured EC50
Give the quantity in µM, number only.

Consider the following illustrative entries.
{"substance": "H-Y[Aib]QGTFTSD[4Pal]SR[αMeL]LDKK([AEEA-γGlu-C18 diacid])AQ[Aib]AFIE[αMeY]LIEGGPSSGAPPPSGS-NH2 [Example 837]", "target": "hGLP-1R (Homo sapiens)", "EC50 (µM)": 0.0696}
{"substance": "H-Y[Aib]QGT[αMePhe(2-F)]TSD[4Pal][αMeS]I[αMeL]LD[Orn]K([AEEA-γGlu-C18 diacid])AQ[αMe4Pal]EFI[dE][αMeY]LIEGGPSSGAPPPSGGGE-NH2 [Example 741]", "target": "hGLP-1R (Homo sapiens)", "EC50 (µM)": 0.0324}
{"substance": "H-Y[Aib]QGT[αMePhe(2-F)]TSD[4Pal][αMeS]I[αMeL]LD[Orn]K([γGlu-γGlu-C18 diacid])AQ[Aib][Orn]FI[dE][αMeY]LTEGGPSSGEPPPSGTE-NH2 [Example 542]", "target": "hGLP-1R (Homo sapiens)", "EC50 (µM)": 0.0296}
{"substance": "H-Y[Aib]QGTFTSDFS[Orn][αMeL]LDKK([AEEA-γGlu-C18 diacid])AQ[Aib]AFIEYLLEGGPSSGAPPPEGT-NH2 [Example 160]", "target": "hGLP-1R (Homo sapiens)", "EC50 (µM)": 0.482}

Alright, here's another substance for you.
Which EC50 value is on record for H-Y[Aib]QGT[αMePhe(2-F)]TSD[4Pal][αMeS]I[αMeL]LD[Orn]K([AEEA-γGlu-C18 diacid])AQ[αMe4Pal]EFI[dE][αMeY]LVEGGPSSGAPPPGGE-NH2 [Example 1154] ?
0.0445
